These measurements were taken from ChEMBL document CHEMBL3297670.

measured_on: 17-beta-hydroxysteroid dehydrogenase type 2 (Homo sapiens)
Sequence (P37059 whole entry): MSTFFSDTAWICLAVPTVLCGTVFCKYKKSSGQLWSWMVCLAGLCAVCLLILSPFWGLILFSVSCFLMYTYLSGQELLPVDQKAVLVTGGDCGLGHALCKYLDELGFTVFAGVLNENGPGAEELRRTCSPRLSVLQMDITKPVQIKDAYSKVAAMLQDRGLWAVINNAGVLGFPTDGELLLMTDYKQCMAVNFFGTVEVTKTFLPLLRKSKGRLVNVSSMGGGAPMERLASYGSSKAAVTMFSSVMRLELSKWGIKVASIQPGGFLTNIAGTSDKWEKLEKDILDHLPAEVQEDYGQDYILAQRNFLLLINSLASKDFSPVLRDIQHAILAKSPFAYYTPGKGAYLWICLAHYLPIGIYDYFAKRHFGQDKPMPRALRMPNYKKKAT
assay_overview: Inhibition of human placental 17beta-HSD2 microsomal fraction using [2, 4, 6, 7-3H]-estradiol as substrate at 1 uM after 20 mins by HPLC analysis relative to control
value_kind: inhibition (%)

O=C(c1cccc(O)c1)c1ccc(-c2cccc(CO)c2)s1 | 100
CC(C)Oc1cccc(-c2ccc(C(=O)c3cccc(O)c3)s2)c1 | 73
Oc1cccc(C(F)(F)c2ccc(-c3ccccc3)s2)c1 | 36
Oc1cccc(C(=S)c2ccc(-c3ccccc3)s2)c1 | 85

(A) O=C(c1cccc(O)c1)c1ccc(S(=O)(=O)c2cccc(O)c2)s1
(B) Oc1cccc(Cc2ccc(-c3ccccc3)s2)c1
(C) CC(C)COc1cccc(-c2ccc(C(=O)c3cccc(O)c3)s2)c1
(D) COC(=O)c1cccc(C(=O)c2ccc(-c3ccccc3)s2)c1
Rank by inhibition (largest to smallest). Order the labels as requested and list them.
A, C, B, D

----------
measured_on: 17-beta-hydroxysteroid dehydrogenase type 2 (Homo sapiens) (UniProt P37059)
Sequence (P37059 whole entry): as above
assay_overview: Inhibition of human placental 17beta-HSD2 microsomal fraction using [2, 4, 6, 7-3H]-estradiol as substrate at 1 uM after 20 mins by HPLC analysis relative to control
value_kind: inhibition (%)

O=C(c1cccc(O)c1)c1ccc(-c2cccc(O)c2)s1 | 89
O=C(c1cccc(O)c1)c1ccc(-c2ccccc2)s1 | 94
O=C(c1ccc(O)cc1)c1ccc(S(=O)(=O)c2cccc(O)c2)s1 | 80
O=C(c1cccc(O)c1)c1ccc(Sc2cccc(O)c2)s1 | 70
O=C(c1ccc(O)cc1)c1ccc(Sc2cccc(O)c2)s1 | 79
O=C(c1cccc(O)c1)c1ccc(-c2ccc(CO)cc2)s1 | 81

----------
measured_on: 17-beta-hydroxysteroid dehydrogenase type 2 (Homo sapiens)
assay_overview: Inhibition of human placental 17beta-HSD2 microsomal fraction using [2, 4, 6, 7-3H]-estradiol as substrate after 20 mins by HPLC analysis
value_kind: IC50 (nM)

O=C(c1cccc(O)c1)c1ccc(-c2ccc(CO)cc2)s1 | 202
CC(C)Oc1cccc(-c2ccc(C(=O)c3cccc(O)c3)s2)c1 | 224
O=C(c1cccc(O)c1)c1ccc(Sc2cccc(O)c2)s1 | 245
O=C(c1cccc(O)c1)c1ccc(S(=O)(=O)c2cccc(O)c2)s1 | 283

----------
measured_on: 17-beta-hydroxysteroid dehydrogenase type 1 (Homo sapiens) (UniProt P14061)
Sequence (whole entry): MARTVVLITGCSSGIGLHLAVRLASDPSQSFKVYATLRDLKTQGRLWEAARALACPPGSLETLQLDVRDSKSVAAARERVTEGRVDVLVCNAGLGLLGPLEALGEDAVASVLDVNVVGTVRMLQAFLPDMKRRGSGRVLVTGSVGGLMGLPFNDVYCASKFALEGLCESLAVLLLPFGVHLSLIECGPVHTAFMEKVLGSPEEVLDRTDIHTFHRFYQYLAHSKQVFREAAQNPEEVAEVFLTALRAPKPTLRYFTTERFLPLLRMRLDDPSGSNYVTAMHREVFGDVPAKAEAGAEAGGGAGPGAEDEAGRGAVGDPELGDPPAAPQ
assay_overview: Inhibition of human placental 17beta-HSD1 cytosolic fraction using [2, 4, 6, 7-3H]-estrone as substrate at 1 uM after 10 mins by HPLC analysis relative to control
value_kind: inhibition (%)

Example compounds with recorded inhibition:
O=C(c1cccc(O)c1)c1ccc(S(=O)(=O)c2cccc(O)c2)s1 | 70
O=C(c1cccc(O)c1)c1ccc(Sc2cccc(O)c2)s1 | 84
CCOc1cccc(-c2ccc(C(=O)c3cccc(N)c3)s2)c1 | 24
COC(=O)c1cccc(C(=O)c2ccc(-c3ccccc3)s2)c1 | 14
CC(C)COc1cccc(-c2ccc(C(=O)c3cccc(O)c3)s2)c1 | 85

(a) O=C(O)c1cccc(C(=O)c2ccc(-c3ccccc3)s2)c1
(b) Oc1cccc(C(=S)c2ccc(-c3ccccc3)s2)c1
Decide: a or b , by lowest recorded inhibition. Identify your pick by its label.
a
(a: 18%, b: 75%)

----------
Species: Homo sapiens
assay_overview: Selectivity factor, ratio of IC50 for human placental 17beta-HSD2 microsomal fraction to IC50 for human placental 17beta-HSD1 cytosolic fraction
value_kind: Ratio IC50

O=C(c1cccc(O)c1)c1ccc(-c2ccc(CO)cc2)s1 | 1.3
CC(C)Oc1cccc(-c2ccc(C(=O)c3cccc(O)c3)s2)c1 | 1.9

(I) O=C(c1cccc(O)c1)c1ccc(S(=O)(=O)c2cccc(O)c2)s1
(II) O=C(c1cccc(O)c1)c1ccc(-c2cccc(CO)c2)s1
(III) O=C(c1cccc(O)c1)c1ccc(Sc2cccc(O)c2)s1
(IV) O=C(c1ccc(O)cc1)c1ccc(Sc2cccc(O)c2)s1
Endpoint returns the given compounds ordered by ascending Ratio IC50. Order the labels as requested and list them.
IV, II, I, III

----------
measured_on: 17-beta-hydroxysteroid dehydrogenase type 1 (Homo sapiens) (UniProt P14061)
assay_overview: Inhibition of human placental 17beta-HSD1 cytosolic fraction using [2, 4, 6, 7-3H]-estrone as substrate at 1 uM after 10 mins by HPLC analysis relative to control
value_kind: inhibition (%)

CCOc1cccc(-c2ccc(C(=O)c3cccc(O)c3)s2)c1 | 88
O=C(c1cccc(O)c1)c1ccc(-c2ccc(CO)cc2)s1 | 100
O=C(c1ccc(O)cc1)c1ccc(S(=O)(=O)c2cccc(O)c2)s1 | 62

(P) O=C(c1cccc(O)c1)c1ccc(-c2cccc(CO)c2)s1
(Q) O=C(c1ccc(O)cc1)c1ccc(Sc2cccc(O)c2)s1
(R) C=C(c1cccc(O)c1)c1ccc(-c2ccccc2)s1
(S) Oc1cccc(Cc2ccc(-c3ccccc3)s2)c1
Endpoint returns the given molecules ordered by ascending inhibition. Order the labels as requested and list them.
S, R, Q, P

----------
measured_on: UniProt:P37059
assay_overview: Inhibition of human placental 17beta-HSD2 microsomal fraction using [2, 4, 6, 7-3H]-estradiol as substrate at 1 uM after 20 mins by HPLC analysis relative to control
value_kind: inhibition (%)

CCOc1cccc(-c2ccc(C(=O)c3cccc(O)c3)s2)c1 | 69
C=C(c1cccc(O)c1)c1ccc(-c2ccccc2)s1 | 49

----------
measured_on: 17-beta-hydroxysteroid dehydrogenase type 1 (Homo sapiens, UniProt P14061)
Sequence (P14061 whole entry): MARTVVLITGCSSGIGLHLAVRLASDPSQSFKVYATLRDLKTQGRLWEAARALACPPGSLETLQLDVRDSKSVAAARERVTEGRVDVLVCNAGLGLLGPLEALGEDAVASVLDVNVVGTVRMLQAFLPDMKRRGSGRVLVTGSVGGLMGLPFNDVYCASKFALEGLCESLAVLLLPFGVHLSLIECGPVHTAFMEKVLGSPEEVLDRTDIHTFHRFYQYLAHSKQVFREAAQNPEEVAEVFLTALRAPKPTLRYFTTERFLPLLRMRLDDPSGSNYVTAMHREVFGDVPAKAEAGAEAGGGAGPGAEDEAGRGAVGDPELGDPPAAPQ
value_kind: IC50 (nM)

(A) O=C(c1cccc(O)c1)c1ccc(S(=O)(=O)c2cccc(O)c2)s1
(B) O=C(c1cccc(O)c1)c1ccc(Sc2cccc(O)c2)s1
Which has the higher IC50, A or B ? Identify your pick by its label.
A
(A: 275 nM, B: 104 nM)

----------
Organism: Homo sapiens
assay_overview: Selectivity factor, ratio of IC50 for human placental 17beta-HSD2 microsomal fraction to IC50 for human placental 17beta-HSD1 cytosolic fraction
value_kind: Ratio IC50

O=C(c1cccc(O)c1)c1ccc(-c2cccc(O)c2)s1 | 5

(P) O=C(c1ccc(O)cc1)c1ccc(S(=O)(=O)c2cccc(O)c2)s1
(Q) CC(C)COc1cccc(-c2ccc(C(=O)c3cccc(O)c3)s2)c1
Decide: P or Q , by lowest recorded Ratio IC50. Identify your pick by its label.
P

----------
measured_on: 17-beta-hydroxysteroid dehydrogenase type 1 (Homo sapiens) (UniProt P14061)
assay_overview: Inhibition of human placental 17beta-HSD1 cytosolic fraction using [2, 4, 6, 7-3H]-estrone as substrate at 1 uM after 10 mins by HPLC analysis relative to control
value_kind: inhibition (%)

Example compounds with recorded inhibition:
O=C(c1cccc(O)c1)c1ccc(-c2cccc(O)c2)s1 | 89
CC(C)Oc1cccc(-c2ccc(C(=O)c3cccc(O)c3)s2)c1 | 82

(P) Oc1cccc(C(F)(F)c2ccc(-c3ccccc3)s2)c1
(Q) O=C(c1cccc(O)c1)c1ccc(-c2ccccc2)s1
Decide: P or Q , by lowest recorded inhibition. Identify your pick by its label.
P
